# Tested on: barnyardgrass (Echinochloa crus-galli, ECHCG)
# EXPERIMENT SUMMARY: Post-emerge test, greenhouse herbicide activity screening
# Format: in vivo
# CONDITION LABEL: post-emerge, 63 g ai/ha, 14 days after application, rating scale 0-100
Reported ECHCG phytotoxicity rating values follow for various molecules
Lab note: jot down the number only; don't add units.

// below: answered molecules
- MOLECULE: "CCOC(=O)CSCC(=O)Nc1c(OC)c(Cl)cc(F)c1-n1c(=O)cc(C(F)(F)F)n(C)c1=O"
  REPORTED VALUE: 0
- MOLECULE: "COc1c(C#N)cc(F)c(-n2c(=O)cc(C(F)(F)F)n(C)c2=O)c1NC(=O)C=Cc1ccccc1"
  REPORTED VALUE: 70
- MOLECULE: "COc1c(Cl)cc(F)c(-n2c(=O)cc(C(F)(F)F)n(C)c2=O)c1NC(=O)Cc1ccccc1"
  REPORTED VALUE: 0
- MOLECULE: "CCOC(=O)C(C)SCC(=O)Nc1c(OC)c(Cl)cc(F)c1-n1c(=O)cc(C(F)(F)F)n(C)c1=O (stereo not drawn)"
  REPORTED VALUE: 0
- MOLECULE: "Cn1c(C(F)(F)F)cc(=O)n(-c2ccc(C(F)(F)F)cc2NC(=O)c2ccc3ccccc3c2)c1=O"
  REPORTED VALUE: 20

Now for another entry.
IN: Give recorded ECHCG phytotoxicity rating with barnyardgrass (Echinochloa crus-galli, ECHCG) for the following molecule: COc1c(C#N)cc(F)c(-n2c(=O)cc(C(F)(F)F)n(C)c2=O)c1NC(=O)c1ccc2ccccc2c1
OUT: 40
